Source of measurements: ChEMBL document CHEMBL1131659

Entries with their measured Ki, system D(4) dopamine receptor (Homo sapiens):
experimentalReadout: Ki (nM)

compound="c1ccc(OCC2CCC3CN(c4ncccn4)CCN3C2)cc1 (stereo not drawn)" measurementunits=nM quantitativereadout=3.8
compound=Fc1ccc(OC[C@H]2CC[C@@H]3CN(c4ncc(F)cn4)CCN3C2)cc1 measurementunits=nM quantitativereadout=106
compound=c1ccc(OC[C@@H]2CC[C@H]3CN(c4ncccn4)CCN3C2)cc1 measurementunits=nM quantitativereadout=3.5

---

Experiment: In vivo percentage mean absolute bioavailability of compound in rat after an oral dose of 10 mg/kg (in water, N=4)
Type: ADME, organism-based
experimentalReadout: bioavailability

structuresmiles=Fc1ccc(OC[C@@H]2CC[C@H]3CN(c4ncc(F)cn4)CCN3C2)cc1 experimentalreadout=bioavailability result=93%

---

Biological target: 5-hydroxytryptamine receptor 1A (Mus musculus)
Sequence (Q64264 whole entry): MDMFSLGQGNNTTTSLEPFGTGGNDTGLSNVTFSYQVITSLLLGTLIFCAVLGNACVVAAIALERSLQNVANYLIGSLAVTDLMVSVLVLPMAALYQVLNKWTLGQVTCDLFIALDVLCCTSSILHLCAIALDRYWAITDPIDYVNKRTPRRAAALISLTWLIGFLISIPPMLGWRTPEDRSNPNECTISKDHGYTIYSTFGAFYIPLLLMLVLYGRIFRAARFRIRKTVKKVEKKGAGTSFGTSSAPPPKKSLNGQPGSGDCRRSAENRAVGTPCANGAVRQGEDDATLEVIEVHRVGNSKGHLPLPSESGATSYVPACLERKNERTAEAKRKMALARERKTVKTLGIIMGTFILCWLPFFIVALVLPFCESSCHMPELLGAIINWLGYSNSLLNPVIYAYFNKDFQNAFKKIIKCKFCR
Experiment: In vitro binding affinity against 5-hydroxytryptamine 1A receptor in CHO cells
experimentalReadout: IC50 (nM)

structuresmiles=Fc1ccc(OC[C@@H]2CC[C@H]3CN(c4ncc(F)cn4)CCN3C2)cc1 measurementunits=nM quantitativereadout=180

---

Assay: The compound was tested In Vitro for half life in human liver microsomes.
Type: ADME, Microsome
experimentalReadout: half-life (min)

structuresmiles=c1ccc(OC[C@@H]2CC[C@H]3CN(c4ncccn4)CCN3C2)cc1 measurementunits=min quantitativereadout=3
structuresmiles=Fc1ccc(OC[C@@H]2CC[C@H]3CN(c4ncccn4)CCN3C2)cc1 measurementunits=min quantitativereadout=3.6
structuresmiles=Fc1ccc(OC[C@@H]2CC[C@H]3CN(c4ncc(F)cn4)CCN3C2)cc1 measurementunits=min quantitativereadout=12.2

---

Target: D(3) dopamine receptor (Homo sapiens)
Sequence (P35462 whole entry): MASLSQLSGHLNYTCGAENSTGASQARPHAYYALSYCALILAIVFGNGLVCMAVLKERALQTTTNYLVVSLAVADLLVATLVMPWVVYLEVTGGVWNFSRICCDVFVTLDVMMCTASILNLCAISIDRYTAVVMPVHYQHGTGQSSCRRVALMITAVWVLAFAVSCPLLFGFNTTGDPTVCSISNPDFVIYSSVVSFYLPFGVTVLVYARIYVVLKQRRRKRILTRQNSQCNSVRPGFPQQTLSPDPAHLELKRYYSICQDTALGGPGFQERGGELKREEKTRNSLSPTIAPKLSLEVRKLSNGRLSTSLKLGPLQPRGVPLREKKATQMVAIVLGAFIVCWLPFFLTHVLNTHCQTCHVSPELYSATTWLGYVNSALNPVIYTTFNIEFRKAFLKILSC
Assay: In vitro binding affinity against human D3 dopamine receptor in CHO cells using [3H]spiperone
pKi: −log10 of the molar value.
experimentalReadout: pKi

structuresmiles=Fc1ccc(OC[C@@H]2CC[C@H]3CN(c4ncc(F)cn4)CCN3C2)cc1 result="< 5.70"

---

Target: 5-hydroxytryptamine receptor 2A (Homo sapiens, UniProt P28223)
Sequence (P28223 whole entry): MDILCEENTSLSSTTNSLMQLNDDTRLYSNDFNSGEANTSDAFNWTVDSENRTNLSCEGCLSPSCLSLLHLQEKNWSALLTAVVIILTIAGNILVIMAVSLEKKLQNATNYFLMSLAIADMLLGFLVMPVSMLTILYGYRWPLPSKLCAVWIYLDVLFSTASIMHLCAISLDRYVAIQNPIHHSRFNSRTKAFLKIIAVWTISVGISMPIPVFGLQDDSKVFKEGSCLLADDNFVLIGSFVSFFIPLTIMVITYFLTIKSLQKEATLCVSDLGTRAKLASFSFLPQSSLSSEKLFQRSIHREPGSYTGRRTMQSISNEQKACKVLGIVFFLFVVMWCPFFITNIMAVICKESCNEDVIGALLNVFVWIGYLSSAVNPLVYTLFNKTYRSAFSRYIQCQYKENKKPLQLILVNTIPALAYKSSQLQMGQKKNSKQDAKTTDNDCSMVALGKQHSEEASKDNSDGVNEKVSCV
Experiment: In vitro binding affinity against 5-hydroxytryptamine 2A receptor in CHO cells
pIC50: −log10 of the molar value.
experimentalReadout: pIC50

structuresmiles=Fc1ccc(OC[C@@H]2CC[C@H]3CN(c4ncc(F)cn4)CCN3C2)cc1 systemname="5-hydroxytryptamine receptor 2A (Homo sapiens, UniProt P28223)" quantitativereadout=6.82

---

Recorded Ki values for a group of compounds are listed next.
Molecular target: UniProt P21917
Sequence (P21917 whole entry): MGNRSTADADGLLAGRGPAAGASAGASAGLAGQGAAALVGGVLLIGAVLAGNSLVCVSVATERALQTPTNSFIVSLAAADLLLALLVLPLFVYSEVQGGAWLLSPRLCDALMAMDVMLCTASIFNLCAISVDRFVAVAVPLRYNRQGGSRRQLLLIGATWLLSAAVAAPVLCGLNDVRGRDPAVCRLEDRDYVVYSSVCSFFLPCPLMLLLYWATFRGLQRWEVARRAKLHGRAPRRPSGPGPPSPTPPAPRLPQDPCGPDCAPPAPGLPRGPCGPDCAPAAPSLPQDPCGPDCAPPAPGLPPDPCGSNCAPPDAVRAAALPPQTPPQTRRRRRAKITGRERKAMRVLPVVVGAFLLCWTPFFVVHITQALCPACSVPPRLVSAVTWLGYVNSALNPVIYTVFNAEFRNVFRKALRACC
experimentalReadout: Ki (nM)

compound=Fc1ccc(OC[C@H]2CC[C@H]3CN(c4ncc(F)cn4)CCN3C2)cc1 experimentalreadout=Ki measurementunits=nM quantitativereadout=2
compound=CC(=O)Nc1ccc(OC[C@@H]2CC[C@H]3CN(c4ncccn4)CCN3C2)cc1 experimentalreadout=Ki measurementunits=nM quantitativereadout=316
compound="c1ccc(OC[C@H]2CC[C@H]3CN(c4ncccn4)CCN3C2)cc1 (stereo in doubt; 3a)" experimentalreadout=Ki measurementunits=nM quantitativereadout=4.1
compound="c1ccc(OC[C@H]2CC[C@H]3CN(c4ncccn4)CCN3C2)cc1 (stereo in doubt; 3b)" experimentalreadout=Ki measurementunits=nM quantitativereadout=1.7
compound=c1ccc(OC[C@@H]2CC[C@H]3CN(c4ccccn4)CCN3C2)cc1 experimentalreadout=Ki measurementunits=nM quantitativereadout=1.7
